test system: HSV-1; experiment: Antiviral activity, HSV-1 in Vero cells, plaque method; format: cell-based; conditions: Human alphaherpesvirus 1, 20 hours, 90% inhibition of plaque formation

compound	EC90
Cc1c(NC(=O)c2cccc(C(F)(F)F)c2)ccc2nc(NC(C)(C)C(=O)N(C)CCc3ccccn3)oc(=O)c12 [Compound No.145]	6 µM
Cc1c(NC(=O)OC(C)(C)C)ccc2nc(NC(C)(C)C(=O)N(C)Cc3ccccn3)oc(=O)c12 [Compound No.59]	10.1 µM
Cc1c(NC(=O)OC(C)(C)C)ccc2nc(N[C@@H](CC(C)C)C(=O)N(C)CCc3ccncc3)oc(=O)c12 [Compound No.54]	6.2 µM
Cc1c(NC(=O)OC(C)(C)C)ccc2nc(N[C@H](C(=O)N(C)Cc3ccccn3)C(C)(C)C)oc(=O)c12 [Compound No.60]	4.7 µM
Cc1c(NC(=O)OC(C)(C)C)ccc2nc(N[C@@H](CC(C)C)C(=O)NCc3cccnc3)oc(=O)c12 [Compound No.37]	15 µM
Cc1c(NC(=O)OC(C)(C)C)ccc2nc(N[C@H](C(=O)NCc3ccncc3)C(C)C)oc(=O)c12 [Compound No.25]	> 25 µM
Cc1c(NC(=O)OC(C)(C)C)ccc2nc(N[C@@H](CC(C)C)C(=O)NCc3ccncc3)oc(=O)c12 [Compound No.38]	> 25 µM
